Tested on: OVCAR-3
Test method notes: NCI tumour cell line growth inhibition, 48 h
The source made the active and inactive calls. No stated cut-off is given here; in the data, active = GI50 up to about 1.1 µM and inactive = higher.
Reported metric: GI50

Given the entry "CN(C)/C(N)=N\C#N" , report its measured GI50.
> 100 µM (inactive)

What value of GI50 has been reported for the following compound? "Cc1ccccc1S(=O)(=O)Nn1cnc2ccc(S(=O)(=O)Nc3ccc(Cl)cc3)cc2c1=O"
85.5 µM (inactive)

Report GI50 for "N#CCCN(c1ccc(C=O)cc1)S(=O)(=O)c1ccccc1" please.
> 100 µM (inactive)

Quick one: GI50 for "Cc1c2cc[n+](C)cc2c(C)c2c1[nH]c1ccc(OC(C)C)cc12" ?
3.1 µM (inactive)

// returns reported GI50 for input "O=[N+]([O-])/C(C(Cl)=C(Cl)Cl)=C(\Nc1cccc2ccccc12)Sc1ccccc1"
7.31 µM (inactive)

Consider the compound shown here: "c1cc(-c2ccc(-c3ccc(-c4ccc(-c5cccc6nsnc56)[nH]4)c4nsnc34)[nH]2)c2nsnc2c1" What is its recorded GI50?
> 100 µM (inactive)

What value of GI50 has been recorded for this entry: COc1cc(S(=O)(=O)Nc2ccc(-c3csc(N4C(=O)C(C)SC4c4cccs4)n3)cc2)ccc1Cl (stereo not given)
58.5 µM (inactive)

Would you mind telling me what GI50 value was observed for "CCN(c1ccccc1)[C@H]1C(=O)N(c2ccc([N+](=O)[O-])cc2)[C@H]1c1ccc(OC)cc1" ?
> 100 µM (inactive)

What value of GI50 has been recorded for this entry: "Cc1nc(=O)[nH]c(NCCNCCO)c1C(=O)Nc1cccc2cc3ccccc3cc12"
> 100 µM (inactive)

Consider the compound shown here: COc1ccc(CN(Cc2ccc(OC)cc2)C(=O)CC2(O)C=CCC2)cc1 (stereo not given) What is its recorded GI50?
98.2 µM (inactive)

Any idea what its GI50 is? The compound is Cc1c2cnccc2c(C)c2c1c1ccccc1n2CC1CO1 (stereo not given)
1.57 µM (inactive)

I am curious: what GI50 value has been reported for "c1cc(-c2sc(-c3ccncc3)c(-c3ccncc3)c2-c2ccncc2)ccn1" ?
16.9 µM (inactive)

Which GI50 reading was recorded for the compound "CC(=O)Nc1ccc(/N=C2\C(c3ccccc3)=C(SC3=C(c4ccccc4)/C(=N\c4ccc(NC(C)=O)cc4)c4ccccc43)c3ccccc32)cc1" ?
27.4 µM (inactive)

Fill blank: measured GI50 of the compound "CCN(CC)c1ccc2cc(C(=O)NCc3ccccc3)c(=N)oc2c1" is ____.
15.6 µM (inactive)

Quick one: GI50 for "CCOC(=O)c1ccc(-c2ccc(Cl)cc2)[nH]1" ?
> 10 µM (inactive)

Which value of GI50 has been reported for "COc1cc(Br)c(CC2=NCCc3cc(OC)c(OC)cc32)cc1OC" in the records?
42.9 µM (inactive)

Given "CC(=O)OCCCCn1nncc1Cn1ccc(=O)n(Cc2cnnn2CCCCOC(C)=O)c1=O" , state its recorded GI50.
> 100 µM (inactive)

Suppose we examine the compound "N#C/C(=C(/S)Nc1ccccc1)c1nc2ccccc2[nH]1" ; what GI50 value has been reported?
> 10 µM (inactive)

Using the record for "COc1cc(/C=C/C(=O)c2ccc(O)c(OC)c2)ccc1O" , report its GI50.
18.7 µM (inactive)

For "O=[N+]([O-])c1cccc(/N=N/c2c(O)ccc3ccccc23)c1" , what is its reported GI50?
> 10 µM (inactive)

Quick check: GI50 of "Brc1ccc2c(-c3nc(-c4c[nH]c5ccccc45)cs3)c[nH]c2c1" ?
39.7 µM (inactive)

Which GI50 reading was recorded for the compound "COc1cc2ccc3c4cc(OC)c(OC)cc4c[n+](C)c3c2cc1O" ?
67.5 µM (inactive)

Consider the compound O=C1CSC(c2cccc(Oc3ccccc3)c2)N1c1cccc(Cl)c1Cl (stereo not given) and give its measured GI50.
30.5 µM (inactive)

Which GI50 value belongs to "COc1cccc2c(Nc3ccc(S(=O)(=O)Nc4ncccn4)cc3)c3ccc([N+](=O)[O-])cc3nc12" ?
> 100 µM (inactive)

Entry "Cc1cc(=O)oc2c(C)c(O)ccc12" : reported GI50 = ?
> 100 µM (inactive)

What GI50 value was documented for this compound, "CCCCNC(=S)Nc1nc(C(=O)NNC(=O)c2ccccc2)cs1" ?
6.14 µM (inactive)

Item "COc1cc2c(cc1OCCN1C(=O)c3cccc4cccc(c34)C1=O)N=C[C@@H]1CCCN1C2=O" has what recorded GI50?
6.68 µM (inactive)

I have this compound here, "CCNC1=C(NC(=O)CCl)C(=O)c2ccccc2C1=O" , and I need its recorded GI50.
17.7 µM (inactive)

Item "Cn1cnc([N+](=O)[O-])c1Sc1nccn1-c1ccccc1" has what recorded GI50?
50.5 µM (inactive)

Consider the compound "C1CCNCC1.O=C1NC(=S)N/C1=C/c1ccccc1O" and give its measured GI50.
> 100 µM (inactive)

====

Tested on: SK-MEL-2
Test method notes: NCI tumour cell line growth inhibition, 48 h
Calls of active or inactive are those of the source. No stated cut-off is given here; in the data, active = GI50 up to about 1.1 µM and inactive = higher.
Kindly state GI50 for each of the entries shown.

Need GI50 of "Cc1ccc(NC(=O)CC/C(CC(=O)c2ccc(Cl)cc2)=N\NC(=O)C(=O)NN)cc1C" , thanks.
> 100 µM (inactive)

Requested field: GI50. Item: "O=C1NC(=S)NC(=O)C1C(c1ccc([N+](=O)[O-])cc1)C1C(=O)NC(=S)NC1=O.c1ccncc1"
> 100 µM (inactive)

Reported GI50 for "c1cc(-c2sc(-c3ccncc3)c(-c3ccncc3)c2-c2ccncc2)ccn1" : what is it?
20.1 µM (inactive)

Returns the measured GI50 for the input compound. Input: "S=c1sc2c(s1)SCc1cccc(n1)CSc1sc(=S)sc1SCc1cccc(n1)CS2"
> 100 µM (inactive)

Query: GI50; subject: "N/N=C(/C=C1\C(=O)Nc2ccccc21)c1ccccc1"
61.8 µM (inactive)

Look up GI50: "Cc1c2cc[n+](C)cc2c(C)c2c1[nH]c1ccc(OC(C)C)cc12"
2.56 µM (inactive)

====

I'd appreciate it if you could supply GI50 values for the items below.
Test system: UACC-257
Test method notes: NCI tumour cell line growth inhibition, 48 h
Active and inactive are the calls of the source. No stated cut-off is given here; in the data, active = GI50 up to about 1.1 µM and inactive = higher.

Record request: GI50 value, item NC1=NN(c2ccccc2)C(=O)C1/C(=N\NC(=O)c1cc2ccccc2cc1O)C(=O)Nc1cccc(C(F)(F)F)c1 (stereo unspecified)
26.4 µM (inactive)

I'd like to know its GI50. The compound in question is "COc1ccc(-c2cc(O)c3ccc(C)nc3n2)cc1"
> 100 µM (inactive)

Which GI50 is listed for CC1=C(CO)C(=O)O[C@@H]([C@@H](CO)[C@H]2CCC3C4C[C@@H](O)[C@@]5(O)CC=CC(=O)[C@]5(C)C4CC[C@@]32C)C1 (stereo partly specified) ?
58.6 µM (inactive)

Return reported GI50; argument: COc1ccc(Cc2nn(C3OC(COC(C)=O)C(OC(C)=O)C(OC(C)=O)C3OC(C)=O)c(=S)n(-c3ccc(OC)cc3)c2=O)cc1 (stereo unspecified)
> 100 µM (inactive)

May I ask what GI50 has been recorded for CN1NC(c2ccc(Cl)cc2)=C(C#N)C(=O)CC1c1ccccc1 (stereo unspecified) ?
> 100 µM (inactive)

Query (compound): COC(=O)CCC1=C(CC(=O)OC)C(C)(OC)N/C1=N/C(=O)OCc1ccccc1 (stereo unspecified) ; field requested: GI50
> 100 µM (inactive)

====

Tested on: CAKI-1
Test method notes: NCI tumour cell line growth inhibition, 48 h
Calls of active or inactive are those of the source. No stated cut-off is given here; in the data, active = GI50 up to about 1.1 µM and inactive = higher.
Hello, when you answer, please use one of the following outcomes: active, inactive

Just curious, what result did "COC(=O)c1ccc2c(c1)sc1nc(-c3ccc(OC)cc3)cn12" get here?
inactive

Recorded test call requested for "CN(C1=NCCO1)c1cccc2c1CCCC2"
inactive

Could you kindly confirm the outcome this assay logged for "COc1ccc(-n2c(=O)c3nc[nH]c3n(-c3ccc(OC)cc3)c2=S)cc1" ?
inactive

I'd appreciate the recorded outcome for "CC1(C)C(=O)C(C)(C)C1=NN" from this test.
inactive

Test call, this compound: "Cc1nc(=O)[nH]c(NCCNCCO)c1C(=O)Nc1cccc2cc3ccccc3cc12"
inactive

Per the assay record, what outcome was assigned to "O=C(c1ccccc1)c1nc2ccc(Cl)cc2c2c1CCCO2" ?
inactive

For "O=[N+]([O-])/C(C(Cl)=C(Cl)Cl)=C(\Nc1cccc2ccccc12)Sc1ccccc1" , which call appears in the assay record?
inactive

Fill in: this test's call for "CN(/N=C\c1ccc2ccccc2c1)C1=NCCCN1" is ___
inactive

For CCCC1C[C@H]2CCCCN2[C@H]2CCCN12 (stereo partly specified) , which call appears in the assay record?
inactive

Please state the recorded outcome for this compound: "Cc1ccc(S(=O)(=O)OC[C@@H]2CO2)cc1"
inactive

What did this assay record as the result for "COc1cccc(-c2cc(=O)c3ccc(C)nc3[nH]2)c1" ?
active

Fill in: this test's call for "COc1cc2c(cc1O)C=NCC2" is ___
inactive

I would be grateful if you could indicate the recorded call for "Cc1ccccc1NC(=N)Nc1ccccc1C" .
inactive

Identify the outcome logged in this assay for the compound shown: "COc1ccc(C[C@]23CCC(=O)N2CCc2cc(OC)c(O)cc23)cc1O"
inactive

// outcome(item) with item = "C=CC(C)(C)n1cc(C2=C3OC(=O)C(c4cn(C(C)(C)C=C)c5ccccc45)=C3OC2=O)c2ccccc21"
inactive

// outcome(item) with item = O=C(CC(Cc1ccccc1)c1ccc(Oc2ccccc2)cc1)Nc1cccc(Cl)c1 (stereo unspecified)
inactive

In this assay, the call recorded for "Cc1cc2nc(N)n[n+]([O-])c2cc1C" was what?
inactive

Dear colleague, could you share the recorded outcome for "CCOC(=O)c1c(-c2ccccc2)nc2ccccc2c1O" when you have a moment?
inactive

Answer briefly: the call reported for "N#Cc1c(-c2ccc([N+](=O)[O-])cc2)cc(-c2ccc(Nc3ccnc4cc(Cl)ccc34)cc2)nc1N" in this assay.
inactive

Write down the call the test reported for this compound. Item: COC(=O)CCC1=C(CC(=O)OC)C(C)(OC)N/C1=N/C(=O)OCc1ccccc1 (stereo unspecified)
inactive

# outcome recorded in this test, key = "CCCCc1ccc(Nc2nc(S)c3[nH]cnc3n2)cc1"
inactive

Outcome? "C=C1c2nc3ccccc3n2C=C(c2ccccc2)N1c1ccc(C)cc1"
inactive

For CN(C)N1C(=C(C#N)C#N)C(c2ccccc2)CC1C#N (stereo unspecified) , which call appears in the assay record?
inactive

// param item: "CC(=O)[C@@H](C)C(=O)N1C(=O)OC[C@@]12[C@@H]1CC[C@@H](C1)C2(C)C" ; yields the recorded call
inactive

Each compound tested received a call. Report the one for C=C(C)C1Cc2cc(C(C)=O)ccc2O1 (stereo unspecified) .
inactive

What did this assay record as the result for "COc1ccc(-c2cc(O)c3ccc(C)nc3n2)cc1" ?
inactive

Per the records of this test, what outcome belongs to "Cc1ccccc1S(=O)(=O)Nn1cnc2ccc(S(=O)(=O)Nc3ccc(Cl)cc3)cc2c1=O" ?
inactive

Given Cc1ccc(C2=CC(=O)OC(C[P+](c3ccccc3)(c3ccccc3)c3ccccc3)(c3ccccc3)O2)cc1 (stereo unspecified) , state the outcome it received in this test.
inactive

Identify the outcome logged in this assay for the compound shown: "Clc1cc(Cc2cc(Cl)c(Cl)c3c2OCOC3)c2c(c1Cl)COCO2"
inactive

I'd appreciate the recorded outcome for COS(=O)(=O)OCCC(NC(=O)OCc1ccccc1)C(=O)OCc1ccccc1 (stereo unspecified) from this test.
inactive

// outcome(item) with item = CCN1C/C(=C\c2cc(OC)c(OC)c(OC)c2)C2=NN(c3ccccc3)C(c3cc(OC)c(OC)c(OC)c3)C2C1 (stereo unspecified)
active
